Measured values drawn from patent US20070135457A1 for this set.

- measured_target: PDE 2 enzyme isolated from human platelets (Homo sapiens, UniProt O00408)
- Construct: PDE 2 enzyme was isolated from human platelets; from tissue; host or cells: human platelets (pooled blood from multiple donors); HiTrap Q anion-exchange fraction eluting at about 325 mM NaCl
- Sequence (O00408 whole entry): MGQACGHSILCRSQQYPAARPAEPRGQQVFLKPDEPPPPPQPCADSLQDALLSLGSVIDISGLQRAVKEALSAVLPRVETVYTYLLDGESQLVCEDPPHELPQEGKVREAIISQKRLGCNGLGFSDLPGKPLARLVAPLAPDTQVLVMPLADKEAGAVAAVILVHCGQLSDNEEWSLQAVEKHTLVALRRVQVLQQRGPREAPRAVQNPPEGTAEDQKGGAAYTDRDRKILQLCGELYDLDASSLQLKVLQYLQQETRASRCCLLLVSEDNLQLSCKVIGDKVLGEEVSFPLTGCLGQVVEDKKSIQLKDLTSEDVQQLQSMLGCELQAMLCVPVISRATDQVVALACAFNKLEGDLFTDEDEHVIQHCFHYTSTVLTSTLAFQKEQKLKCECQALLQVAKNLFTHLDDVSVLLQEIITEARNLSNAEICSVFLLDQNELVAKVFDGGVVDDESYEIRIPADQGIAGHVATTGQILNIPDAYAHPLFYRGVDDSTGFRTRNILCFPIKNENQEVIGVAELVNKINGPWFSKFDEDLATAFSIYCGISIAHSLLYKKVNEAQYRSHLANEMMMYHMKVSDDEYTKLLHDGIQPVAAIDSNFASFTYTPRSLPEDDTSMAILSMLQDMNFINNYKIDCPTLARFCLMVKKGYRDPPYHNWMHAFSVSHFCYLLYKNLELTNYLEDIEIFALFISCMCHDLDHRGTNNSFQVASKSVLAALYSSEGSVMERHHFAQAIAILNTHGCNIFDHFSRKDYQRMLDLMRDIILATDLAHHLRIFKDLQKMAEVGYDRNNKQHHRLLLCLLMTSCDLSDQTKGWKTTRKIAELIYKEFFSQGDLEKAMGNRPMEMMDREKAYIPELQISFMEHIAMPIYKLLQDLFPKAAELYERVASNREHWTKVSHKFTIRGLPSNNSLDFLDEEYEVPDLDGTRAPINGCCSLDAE
- measurement_protocol: PDE 2 enzyme scintillation proximity assay (SPA)
- Type: biochemical
- condition_notes: PDE 2 isolated from human platelets; read-out: IC50
quantity_measured: IC50 (µM)

>  <compound>
CCCCCCC(C(C)O)n1cnc2c(N)ncnc21 (stereo not drawn) [EHNA, erythro-9-(2-hydroxy-3-nonyl)adenine, reference compound]

>  <measured_target>
PDE 2 enzyme isolated from human platelets (Homo sapiens, UniProt O00408)

>  <quantity_measured>
IC50

>  <quantitative_result>
1.7

$$$$

---

- measured_target: PDE 2 enzyme isolated from human platelets (Homo sapiens)
- Construct: PDE 2 enzyme was isolated from human platelets; from tissue; host or cells: human platelets (pooled blood from multiple donors); HiTrap Q anion-exchange fraction eluting at about 325 mM NaCl
- measurement_protocol: PDE 2 enzyme scintillation proximity assay (SPA)
- Type: biochemical
- condition_notes: SPA, 1 μM substrate; read-out: PDE 2 Inhibition
quantity_measured: IC50

>  <smiles_structure>
COc1ccc(CNc2nc(NCCCc3ccc(C(=O)C(F)(F)F)cc3)nc3ncccc23)cc1OC

>  <result>
250 to 1000 nM

$$$$
>  <smiles_structure>
COc1ccc(CCNc2nc(NCc3cc(OC)cc(OC)c3)c3cccnc3n2)cc1

>  <result>
250 to 1000 nM

$$$$
>  <smiles_structure>
COc1cc(CNc2nc(NCCc3ccccn3)nc3ncccc23)cc(OC)c1

>  <result>
50 to 250 nM

$$$$
>  <smiles_structure>
COc1cc(CNc2nc(NCc3cccnc3)nc3ncccc23)cc(OC)c1

>  <result>
250 to 1000 nM

$$$$
>  <smiles_structure>
COc1cc(CNc2nc(NCc3cc(OC)cc(OC)c3)c3cccnc3n2)cc(OC)c1

>  <result>
< 50 nM

$$$$
>  <smiles_structure>
COc1cc(CNc2nc(NCCc3cccs3)nc3ncccc23)cc(OC)c1

>  <result>
< 50 nM

$$$$
>  <smiles_structure>
COc1cc(CNc2nc(NCCCc3ccncc3)nc3ncccc23)cc(OC)c1

>  <result>
250 to 1000 nM

$$$$
>  <smiles_structure>
COc1ccc(CNc2nc(NCc3ccccc3C(F)(F)F)nc3ncccc23)cc1OC

>  <result>
250 to 1000 nM

$$$$
>  <smiles_structure>
COc1ccc(CNc2nc(NCCCCc3ccccc3)nc3ncccc23)cc1OC

>  <result>
50 to 250 nM

$$$$

---

>  <compound>
COc1ccc(CNc2nc(NCCCc3ccc(C(=O)C(F)(F)F)cc3)nc3ncccc23)cc1OC [Example 36]

>  <melting point>
198 to 200 °C

$$$$
>  <compound>
COc1ccc(CNc2nc(NCCc3ccccc3)nc3ncccc23)cc1OC [Example 17]

>  <melting point>
217 to 218 °C

$$$$
>  <compound>
COc1cc(CNc2nc(NCCc3ccccc3)nc3ncccc23)cc(OC)c1 [Example 12]

>  <melting point>
112 to 114 °C

$$$$
>  <compound>
COc1cc(CNc2nc(NCCCc3ccc(C(C)(C)O)cc3)nc3ncccc23)cc(OC)c1 [Example 22]

>  <melting point>
70 to 75 °C

$$$$
>  <compound>
COc1cc(CNc2nc(NCc3ccc(C(C)(C)O)cc3)nc3ncccc23)cc(OC)c1 [Example 11]

>  <melting point>
105 to 109 °C

$$$$
